Field: Test D disease rating (100 = 100% disease control, 0 = no disease control). Provide a value for each of the compounds that follow.
system: Phytophthora infestans; experiment: whole plant or invertebrate; type: in vivo; conditions: tomato late blight; spray 17 h after inoculation; compounds without asterisk (not 40 or 10 ppm)
Hi, when you answer, please include the unit after the number. Thanks!

In [3]: df
Out[3]:
                                   compound  result_value
0  CC(=O)OC1CCc2ccccc2C1N(C)C(=O)c1csc(C2CCN(C(=O)Cn3nc(C(F)(F)F)cc3C)CC2)n1 (stereo not shown)           88%
1  COc1ccc(C)cc1NC(=S)N1CCC(c2nc(C(=O)N(C)[C@H](C)c3ccccc3)cs2)CC1           91%
2  COC(=O)C1CC(N(C)C(=O)c2csc(C3CCN(C(=O)Cn4nc(C(F)(F)F)cc4C)CC3)n2)c2ccccc21 (stereo not shown)           90%

Continue with the next compound.
Qu. Recorded Test D disease rating (100 = 100% disease control, 0 = no disease control) of COc1ccccc1NC(=O)N1CCC(c2nc(C(=O)N(C)[C@H](C)c3ccccc3)co2)CC1 , please.
Ans. 91%

Numbers sourced from patent US8586611B2.
